# MEASURED ON: GABA transporter 3 (Mus musculus)
# Sequence (whole entry): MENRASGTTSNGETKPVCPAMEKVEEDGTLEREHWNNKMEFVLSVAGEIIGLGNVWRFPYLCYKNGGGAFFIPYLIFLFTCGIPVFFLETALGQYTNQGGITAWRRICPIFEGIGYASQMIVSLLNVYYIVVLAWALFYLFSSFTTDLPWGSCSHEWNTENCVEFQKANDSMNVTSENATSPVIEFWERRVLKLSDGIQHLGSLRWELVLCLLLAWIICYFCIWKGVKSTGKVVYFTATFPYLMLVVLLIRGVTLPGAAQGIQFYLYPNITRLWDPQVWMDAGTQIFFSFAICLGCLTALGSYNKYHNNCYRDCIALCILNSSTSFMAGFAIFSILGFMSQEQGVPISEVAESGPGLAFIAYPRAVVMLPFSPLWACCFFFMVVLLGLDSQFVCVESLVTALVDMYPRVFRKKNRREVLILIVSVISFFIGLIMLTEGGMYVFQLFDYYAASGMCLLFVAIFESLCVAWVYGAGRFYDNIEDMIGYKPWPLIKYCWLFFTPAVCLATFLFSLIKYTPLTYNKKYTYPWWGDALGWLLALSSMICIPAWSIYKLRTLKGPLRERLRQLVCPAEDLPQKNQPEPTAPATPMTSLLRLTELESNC
# METHOD: Remaining GABA uptake at murine GAT-2 expressed in HEK293 cells at 100 uM relative to control
READOUT NAME: remaining GABA uptake (%)

**Q:** Give a short answer stating reported remaining GABA uptake for O=C(O)CCNCCOCCN1c2ccccc2Sc2ccccc21 .
**A:** 50

P = COc1ccc(C(/C=C/CNCCC(=O)O)(c2ccc(OC)cc2)c2ccc(OC)cc2)cc1
Q = COc1ccc(C(OCCNC(C)CC(=O)O)(c2ccc(OC)cc2)c2ccc(OC)cc2)cc1 (racemic)
**Q:** Quick one: lower remaining GABA uptake, P or Q ? Kindly give the label for the entry you pick.
**A:** Q

1 = CC(CC(=O)O)NCCC=C(c1ccccc1)c1ccccc1 (racemic)
2 = O=C(O)CCNCCOCCN1c2ccccc2CCc2ccccc21
**Q:** Quick one: lower remaining GABA uptake, 1 or 2 ? Kindly give the label for the entry you pick.
**A:** 2
